Where these numbers come from: ChEMBL document CHEMBL4715736

- System: HCT-15
- Protocol details: Growth inhibition of human HCT-15 cells incubated for 48 hrs by sulforhodamine B assay
- Type: functional
Value type: GI50 (µM)
Answers are plain numbers, in µM.

Previously resolved entries follow.
- CCc1cccc(C)c1NC(=O)c1sc2nc3c(cc2c1N)C(=O)CCC3: 0.471
- Cc1cccc(NC(=O)c2sc3nc4c(cc3c2N)C(=O)CCC4)c1: 0.27
- Cc1ccc(NC(=O)c2sc3nc4c(cc3c2N)C(=O)CCC4)cc1C: 0.486
- Nc1c(C(=O)Nc2ccccc2)sc2nc3c(cc12)CN(Cc1ccccc1)CC3: 24.7
- COc1cccc(NC(=O)c2sc3nc4c(cc3c2N)CN(Cc2ccccc2)CC4)c1: 0.93
- Cc1cc(C)c(NC(=O)c2sc3nc4c(cc3c2N)CN(Cc2ccccc2)CC4)c(C)c1: 2.12

Give GI50 for all compounds that follow.
1. CN1CCc2nc3sc(C(N)=O)c(N)c3c(-c3cccs3)c2C1
2. CCc1ccccc1NC(=O)c1sc2nc3c(cc2c1N)C(=O)CCC3

Result:
1: 3.31; 2: 0.349

====

- Tested on: CAKI-1
- Protocol details: Growth inhibition of human CAKI-1 cells assessed as cell growth at 0.01 uM incubated for 48 hrs by sulforhodamine B assay relative to control
- Type: functional
- Condition description: read-out: Activity
Please respond with reported growth at 0.01 µM for every item in the list.
Give bare numbers, in %.

• Cc1cccc(NC(=O)c2sc3nc4c(cc3c2N)C(=O)CCC4)c1 = 89
• Cc1ccc(NC(=O)c2sc3nc4c(cc3c2N)C(=O)CCC4)cc1C = 96
• Nc1c(C(=O)Nc2ccccc2)sc2nc3c(cc12)CN(Cc1ccccc1)CC3 = 93
• CN1CCc2nc3sc(C(N)=O)c(N)c3c(-c3cccs3)c2C1 = 95
• CCc1ccccc1NC(=O)c1sc2nc3c(cc2c1N)C(=O)CCC3 = 89
• Cc1cc(C)c(NC(=O)c2sc3nc4c(cc3c2N)CN(Cc2ccccc2)CC4)c(C)c1 = 88

Hi, could you look up growth at 0.01 µM for each item in my list?
1. COc1cccc(NC(=O)c2sc3nc4c(cc3c2N)CN(Cc2ccccc2)CC4)c1
2. CCc1cccc(C)c1NC(=O)c1sc2nc3c(cc2c1N)C(=O)CCC3

Result:
1. 87
2. 89

====

- Tested on: T47D
- Protocol details: Growth inhibition of human T47D cells assessed as cell growth at 0.1 uM incubated for 48 hrs by sulforhodamine B assay relative to control
- Assay type: functional
- Condition description: read-out: Activity
growth at 0.1 µM strictly less than 90% = 1 (yes). Otherwise 0 (no).

Consider the worked cases shown below.
* CCc1ccccc1NC(=O)c1sc2nc3c(cc2c1N)C(=O)CCC3 | 0 (no)
* Cc1ccc(NC(=O)c2sc3nc4c(cc3c2N)C(=O)CCC4)cc1C | 0 (no)
* Nc1c(C(=O)Nc2ccccc2)sc2nc3c(cc12)CN(Cc1ccccc1)CC3 | 1 (yes)

Turning to the following compound.
Problem: Below 90% on growth at 0.1 µM? Entry `CN1CCc2nc3sc(C(N)=O)c(N)c3c(-c3cccs3)c2C1`
Result: 0 (no)

====

- Test system: MOLT-4
- Protocol details: Growth inhibition of human MOLT-4 cells assessed as cell growth at 1 uM incubated for 48 hrs by sulforhodamine B assay relative to control
- Format: functional
- Condition description: read-out: Activity
Value type: growth at 1 µM (%)
Give bare numbers, in %.

These solved cases illustrate the format of a correct answer.
- CN1CCc2nc3sc(C(N)=O)c(N)c3c(-c3cccs3)c2C1: 85
- Cc1ccc(NC(=O)c2sc3nc4c(cc3c2N)C(=O)CCC4)cc1C: 82
- Cc1cccc(NC(=O)c2sc3nc4c(cc3c2N)C(=O)CCC4)c1: 54
- Cc1cc(C)c(NC(=O)c2sc3nc4c(cc3c2N)CN(Cc2ccccc2)CC4)c(C)c1: 96
- CCc1ccccc1NC(=O)c1sc2nc3c(cc2c1N)C(=O)CCC3: 66
- Nc1c(C(=O)Nc2ccccc2)sc2nc3c(cc12)CN(Cc1ccccc1)CC3: 97
- CCc1cccc(C)c1NC(=O)c1sc2nc3c(cc2c1N)C(=O)CCC3: 67

As a next step, examine the molecule that follows.
Entry under test: `COc1cccc(NC(=O)c2sc3nc4c(cc3c2N)CN(Cc2ccccc2)CC4)c1` . Its growth at 1 µM was 78

====

Please respond with reported CC50 for every item in the list.
- Tested on: DU-145
- Protocol details: Growth inhibition of human DU-145 cells incubated for 48 hrs by sulforhodamine B assay
- Format: functional
- Condition description: read-out: LC50 (the source's name)

Take a look at these entries with their results.
• CN1CCc2nc3sc(C(N)=O)c(N)c3c(-c3cccs3)c2C1 = > 100 µM
• Cc1cc(C)c(NC(=O)c2sc3nc4c(cc3c2N)CN(Cc2ccccc2)CC4)c(C)c1 = > 100 µM
• Cc1cccc(NC(=O)c2sc3nc4c(cc3c2N)C(=O)CCC4)c1 = ≥ 100 µM

Record CC50 for all entries; do not skip any.
1. CCc1cccc(C)c1NC(=O)c1sc2nc3c(cc2c1N)C(=O)CCC3
2. Nc1c(C(=O)Nc2ccccc2)sc2nc3c(cc12)CN(Cc1ccccc1)CC3
3. CCc1ccccc1NC(=O)c1sc2nc3c(cc2c1N)C(=O)CCC3
4. COc1cccc(NC(=O)c2sc3nc4c(cc3c2N)CN(Cc2ccccc2)CC4)c1
5. Cc1ccc(NC(=O)c2sc3nc4c(cc3c2N)C(=O)CCC4)cc1C

Result:
1. > 100 µM
2. > 100 µM
3. > 100 µM
4. 76.3 µM
5. > 100 µM

====

- Test system: BT-549
- Protocol details: Growth inhibition of human BT-549 cells assessed as cell growth at 100 uM incubated for 48 hrs by sulforhodamine B assay relative to control
- Format: functional
- Condition description: read-out: Activity
Value type: growth at 100 µM (%)
Answers are plain numbers, in %.

- CCc1ccccc1NC(=O)c1sc2nc3c(cc2c1N)C(=O)CCC3: 11
- CN1CCc2nc3sc(C(N)=O)c(N)c3c(-c3cccs3)c2C1: -8
- Nc1c(C(=O)Nc2ccccc2)sc2nc3c(cc12)CN(Cc1ccccc1)CC3: -2
- Cc1cccc(NC(=O)c2sc3nc4c(cc3c2N)C(=O)CCC4)c1: -11
- COc1cccc(NC(=O)c2sc3nc4c(cc3c2N)CN(Cc2ccccc2)CC4)c1: -32
- Cc1ccc(NC(=O)c2sc3nc4c(cc3c2N)C(=O)CCC4)cc1C: 42

# context switch: different compound, same growth at 100 µM
The recorded growth at 100 µM with BT-549 for `Cc1cc(C)c(NC(=O)c2sc3nc4c(cc3c2N)CN(Cc2ccccc2)CC4)c(C)c1` was -9

====

- System: MOLT-4
- Protocol details: Growth inhibition of human MOLT-4 cells incubated for 48 hrs by sulforhodamine B assay
- Type: functional
Value type: TGI

• Nc1c(C(=O)Nc2ccccc2)sc2nc3c(cc12)CN(Cc1ccccc1)CC3 = > 100 µM
• CN1CCc2nc3sc(C(N)=O)c(N)c3c(-c3cccs3)c2C1 = 48.4 µM
• Cc1ccc(NC(=O)c2sc3nc4c(cc3c2N)C(=O)CCC4)cc1C = 76.2 µM
• Cc1cccc(NC(=O)c2sc3nc4c(cc3c2N)C(=O)CCC4)c1 = > 100 µM
• COc1cccc(NC(=O)c2sc3nc4c(cc3c2N)CN(Cc2ccccc2)CC4)c1 = > 100 µM

Can you give me TGI for all of these, one by one?
1. Cc1cc(C)c(NC(=O)c2sc3nc4c(cc3c2N)CN(Cc2ccccc2)CC4)c(C)c1
2. CCc1cccc(C)c1NC(=O)c1sc2nc3c(cc2c1N)C(=O)CCC3
3. CCc1ccccc1NC(=O)c1sc2nc3c(cc2c1N)C(=O)CCC3

Result:
["> 100 µM", "≥ 100 µM", "> 100 µM"]

====

- Test system: OVCAR-8
- Protocol details: Growth inhibition of human OVCAR-8 cells assessed as cell growth at 10 uM incubated for 48 hrs by sulforhodamine B assay relative to control
- Assay type: functional
- Condition description: read-out: Activity
Provide the recorded growth at 10 µM for the entries that follow.
Give bare numbers, in %.

- O=S(=O)(c1ccc(Br)cc1)n1ccc(-c2ccc(OCCCF)cc2)n1: 95.1

Consider the following items and state reported growth at 10 µM for each.
1. Cc1cc(C)cc(S(=O)(=O)n2ccc(-c3ccc4c(c3)CCC(C)(C)O4)n2)c1
2. Cc1ccc(S(=O)(=O)n2ccc(-c3ccc(OCCCF)cc3)n2)cc1
3. CC(=O)c1cccc(NC(=O)c2sc3nc4c(cc3c2N)C(=O)CCC4)c1
4. CC(=O)Nc1ccc(S(=O)(=O)n2ccc(-c3ccc4c(c3)CCC(C)(C)O4)n2)cc1

Result:
1: 91; 2: 87.7; 3: 101; 4: 69.4
